system: RXF 393 renal; assay: NCI tumour cell line growth inhibition, 48 h
The compounds listed here are annotated with their TGI.
Entry rule: numbers only, all in µM.

Some compounds with recorded TGI:
{"smiles.repr": "CC(=O)/C(=C\\c1c(-c2ccccc2)[nH]c2ccccc12)S(=O)(=O)c1ccccc1", "TGI [µM]": 2.8}
{"smiles.repr": "C[C@]12CCc3sc(-c4cccc(F)c4)nc3C1=CC[C@@H]1[C@@H]2CC[C@]2(C)C(=O)CC[C@@H]12", "TGI [µM]": 2.94}
{"smiles.repr": "Cc1[nH]c(=O)nc(N(CCO)/N=C/c2ccc(Cl)cc2)c1C(=O)Nc1ccc(Cl)cc1", "TGI [µM]": 76.3}

Input: Annotate the compound Clc1ccc(N2CCC(N3CCCC3)CC2)cc1-c1nc2ccccc2[nH]1 with its measured TGI.
Output: 26.8

Input: Return TGI (reported value) for this compound: FC(F)(F)c1[nH]ncc1-c1nc2ccc3[nH]ncc3c2c2c1CCCC2
Output: 2.35

The reported measurements were obtained from PubChem BioAssay (NCI).
